Sourced from patent US4194006A

Coronary flow, Mean ± S.E. by entry:
System: isolated rabbit hearts
Assay: coronary vasodilator effect: coronary flow, isolated heart (Langendorff)
Details: 1·10^-5 g/lt

{"MOLECULE": "CCCCCC(=O)OC(CC(=O)[O-])C[N+](C)(C)C (racemic) [hexanoyl-d,l-carnitine]", "UNIT_NAME": "%", "Coronary flow, Mean ± S.E.": 84.08}
{"MOLECULE": "CCC(=O)OC(CC(=O)[O-])C[N+](C)(C)C (racemic) [propionyl-d,l-carnitine]", "UNIT_NAME": "%", "Coronary flow, Mean ± S.E.": 89.27}
{"MOLECULE": "CC(O)CC(=O)OC(CC(=O)[O-])C[N+](C)(C)C (stereo not shown)", "UNIT_NAME": "%", "Coronary flow, Mean ± S.E.": 89.19}
{"MOLECULE": "CCCCCCCCCCCCCCCC(=O)OC(CC(=O)[O-])C[N+](C)(C)C (racemic) [palmitoyl-d,l-carnitine]", "UNIT_NAME": "%", "Coronary flow, Mean ± S.E.": 84.68}

* * *

Tested on: female rats
Assay: antifatigue effect: rota-rod
Assay type: in vivo, rat
Conditions: Rattus norvegicus, ip, 0.25 h, 300 mg/kg i.p.; session 6 (every 15 minutes); read-out: percentage of animals staying on the rota-rod more than 180 seconds
responders at 300 mg/kg by entry:

{"MOLECULE": "CCCCCCCCCC(=O)OC(CC(=O)[O-])C[N+](C)(C)C (racemic) [decanoyl-d,l-carnitine]", "UNIT_NAME": "%", "responders at 300 mg/kg": 10}
{"MOLECULE": "CCCC(=O)OC(CC(=O)[O-])C[N+](C)(C)C (racemic) [butyryl-d,l-carnitine]", "UNIT_NAME": "%", "responders at 300 mg/kg": 10}
{"MOLECULE": "CCCCCCCC(=O)OC(CC(=O)[O-])C[N+](C)(C)C (racemic) [octanoyl-d,l-carnitine]", "UNIT_NAME": "%", "responders at 300 mg/kg": 10}
{"MOLECULE": "CCCCCC(=O)OC(CC(=O)[O-])C[N+](C)(C)C (racemic) [hexanoyl-d,l-carnitine]", "UNIT_NAME": "%", "responders at 300 mg/kg": 10}
{"MOLECULE": "CC(=O)CC(=O)OC(CC(=O)[O-])C[N+](C)(C)C (racemic) [acetoacetyl-d,l-carnitine]", "UNIT_NAME": "%", "responders at 300 mg/kg": 10}
{"MOLECULE": "CCCCCCCCCCCCCCCCCC(=O)OC(CC(=O)[O-])C[N+](C)(C)C (racemic) [stearoyl-d,l-carnitine]", "UNIT_NAME": "%", "responders at 300 mg/kg": 10}

* * *

activation at 0.1 µg/mL by entry:
System: isolated rat atrium
Assay: antiarrhythmic effect, isolated rat atrium method of M. Libonati and G. Segre
Conditions: Rattus norvegicus; 1·10^-4 g/lt; increase; read-out: Mean percent variation versus controls: refractory period (+%)

{"MOLECULE": "CCCCCCCC(=O)OC(CC(=O)[O-])C[N+](C)(C)C (racemic) [octanoyl-d,l-carnitine]", "SYSTEM_TESTED": "isolated rat atrium", "activation at 0.1 µg/mL [%]": 39.8}
{"MOLECULE": "CC(=O)CC(=O)OC(CC(=O)[O-])C[N+](C)(C)C (racemic) [acetoacetyl-d,l-carnitine]", "SYSTEM_TESTED": "isolated rat atrium", "activation at 0.1 µg/mL [%]": 22.8}
{"MOLECULE": "C=C[C@H]1C[N@@]2CC[C@H]1C[C@@H]2[C@@H](O)c1ccnc2ccc(OC)cc12 [Quinidine, reference compound]", "SYSTEM_TESTED": "isolated rat atrium", "activation at 0.1 µg/mL [%]": 57.4}
{"MOLECULE": "CCCC(=O)OC(CC(=O)[O-])C[N+](C)(C)C (racemic) [butyryl-d,l-carnitine]", "SYSTEM_TESTED": "isolated rat atrium", "activation at 0.1 µg/mL [%]": 38}
{"MOLECULE": "CCCCCCCCCCCCCCCCCC(=O)OC(CC(=O)[O-])C[N+](C)(C)C (racemic) [stearoyl-d,l-carnitine]", "SYSTEM_TESTED": "isolated rat atrium", "activation at 0.1 µg/mL [%]": 24.6}
{"MOLECULE": "CCCCCCCCCC(=O)OC(CC(=O)[O-])C[N+](C)(C)C (racemic) [decanoyl-d,l-carnitine]", "SYSTEM_TESTED": "isolated rat atrium", "activation at 0.1 µg/mL [%]": 21.6}
{"MOLECULE": "CCCCCC(=O)OC(CC(=O)[O-])C[N+](C)(C)C (racemic) [hexanoyl-d,l-carnitine]", "SYSTEM_TESTED": "isolated rat atrium", "activation at 0.1 µg/mL [%]": 21.7}

* * *

Test system: isolated rat atrium
Assay: antiarrhythmic effect, isolated rat atrium method of M. Libonati and G. Segre
Details: Rattus norvegicus, read-out: Mean percent variation versus controls: excitability (-%)
READOUT_KIND: inhibition at 0.1 µg/mL (%)

{"COMPOUND": "CCCCCCCCCCCCCCCC(=O)OC(CC(=O)[O-])C[N+](C)(C)C (racemic)", "SYSTEM_TESTED": "isolated rat atrium", "UNIT_NAME": "%", "RESULT_NUMBER": 32.8}
{"COMPOUND": "C[N+](C)(C)CC(O)CC(=O)[O-] (racemic) [d,l-carnitine, γ-trimethyl amino β-hydroxy butyric acid]", "SYSTEM_TESTED": "isolated rat atrium", "UNIT_NAME": "%", "RESULT_NUMBER": 27.1}
{"COMPOUND": "CCC(=O)OC(CC(=O)[O-])C[N+](C)(C)C (racemic)", "SYSTEM_TESTED": "isolated rat atrium", "UNIT_NAME": "%", "RESULT_NUMBER": 14.7}
{"COMPOUND": "CC(=O)OC(CC(=O)[O-])C[N+](C)(C)C (racemic)", "SYSTEM_TESTED": "isolated rat atrium", "UNIT_NAME": "%", "RESULT_NUMBER": 71}

* * *

System: female rats
Experiment: antifatigue effect: rota-rod
Type: in vivo, rat
Settings: Rattus norvegicus, ip, 0.25 h, 600 mg/kg i.p.; session 5 (every 15 minutes); read-out: percentage of animals staying on the rota-rod more than 180 seconds
responders at 600 mg/kg by entry:

{"COMPOUND": "CCCCCCCC(=O)OC(CC(=O)[O-])C[N+](C)(C)C (racemic)", "responders at 600 mg/kg, %": 10}
{"COMPOUND": "CCCC(=O)OC(CC(=O)[O-])C[N+](C)(C)C (racemic)", "responders at 600 mg/kg, %": 20}
{"COMPOUND": "CC(=O)CC(=O)OC(CC(=O)[O-])C[N+](C)(C)C (racemic)", "responders at 600 mg/kg, %": 40}
{"COMPOUND": "CCCCCCCCCCCCCCCCCC(=O)OC(CC(=O)[O-])C[N+](C)(C)C (racemic)", "responders at 600 mg/kg, %": 20}
{"COMPOUND": "CCCCCCCCCC(=O)OC(CC(=O)[O-])C[N+](C)(C)C (racemic)", "responders at 600 mg/kg, %": 10}
{"COMPOUND": "CCCCCC(=O)OC(CC(=O)[O-])C[N+](C)(C)C (racemic)", "responders at 600 mg/kg, %": 20}

* * *

System: female rats
Assay: antifatigue effect: rota-rod
Format: in vivo, rat
Details: Rattus norvegicus, ip, 0.25 h, read-out: percentage of animals staying on the rota-rod more than 180 seconds, 400 mg/kg i.p.; session 6 (every 15 minutes); * p < 0.05
responders at 400 mg/kg by entry:
READOUT_KIND: responders at 400 mg/kg (%)

{"COMPOUND": "C[N+](C)(C)CC(O)CC(=O)[O-] (racemic) [d,l-carnitine, γ-trimethyl amino β-hydroxy butyric acid]", "UNIT_NAME": "%", "RESULT_NUMBER": 25}
{"COMPOUND": "CCCCCCCCCCCCCCCC(=O)OC(CC(=O)[O-])C[N+](C)(C)C (racemic) [palmitoyl-d,l-carnitine]", "UNIT_NAME": "%", "RESULT_NUMBER": 20}
{"COMPOUND": "CC(=O)OC(CC(=O)[O-])C[N+](C)(C)C (racemic) [acetyl-d,l-carnitine]", "UNIT_NAME": "%", "RESULT_NUMBER": 50}
{"COMPOUND": "CCC(=O)OC(CC(=O)[O-])C[N+](C)(C)C (racemic) [propionyl-d,l-carnitine]", "UNIT_NAME": "%", "RESULT_NUMBER": 40}

* * *

Test: in vivo
Conditions: mouse, in vivo, iv

{"COMPOUND": "CCCCCCCCCCCCCCCCCC(=O)OC(CC(=O)[O-])C[N+](C)(C)C (racemic)", "LD50": "~745 mg/kg"}
{"COMPOUND": "C[N+](C)(C)CC(O)CC(=O)[O-] (racemic) [d,l-carnitine, γ-trimethyl amino β-hydroxy butyric acid]", "LD50": "~610 mg/kg"}
{"COMPOUND": "CC(=O)OC(CC(=O)[O-])C[N+](C)(C)C (racemic)", "LD50": "~770 mg/kg"}
{"COMPOUND": "CC(=O)CC(=O)OC(CC(=O)[O-])C[N+](C)(C)C (racemic)", "LD50": "~728 mg/kg"}
